- measurement_notes: Inhibition of Escherichia coli Trx incubated for 1.5 hrs in presence of DTT and insulin
Listing of recorded IC50 by entry.

>  <compound_smiles>
CC(=O)O[C@H]1C=C([C@H](C)[C@H]2CC(C)=C(C)C(=O)O2)[C@@]2(C)CC[C@H]3[C@@H](C[C@H]4O[C@]45[C@@H](O)C=CC(=O)[C@]35C)[C@]12O

>  <endpoint_value>
> 2.5 µM

$$$$

Now for a further compound.
Ask | # lookup: IC50 of CC(=O)O[C@H]1C=C([C@H](C)[C@H]2CC(C)=C(C)C(=O)O2)[C@@]2(C)CC[C@H]3[C@@H](C[C@H]4O[C@]45[C@@H](OC(=O)/C=C/C(=O)N(C)C)C=CC(=O)[C@]35C)[C@]12O
Reply | > 2.5 µM

====

- Tested on: HT-29
- measurement_notes: Antiproliferative activity against human HT-29 cells assessed as reduction in cell viability incubated for 24 hrs by MTT assay
- Format: functional, cell-based
- condition_summary: HT-29, 24 h
measure: IC50

Past entries and their recorded results:
>  <compound>
CC(=O)O[C@H]1C=C([C@H](C)[C@H]2CC(C)=C(C)C(=O)O2)[C@@]2(C)CC[C@H]3[C@@H](C[C@H]4O[C@]45[C@@H](OC(=O)C4CCCN4C(=O)OC(C)(C)C)C=CC(=O)[C@]35C)[C@]12O (some centres undefined)

>  <IC50>
1.01 µM

$$$$
>  <compound>
CC(=O)O[C@H]1[C@@H]2O[C@]2([C@H](C)[C@H]2CC(C)=C(C)C(=O)O2)[C@@]2(C)CC[C@H]3[C@@H](C[C@H]4O[C@]45[C@@H](O)C=CC(=O)[C@]35C)[C@]12O

>  <IC50>
4.55 µM

$$$$
>  <compound>
CC(=O)O[C@H]1C=C([C@H](C)[C@H]2CC(C)=C(C)C(=O)O2)[C@@]2(C)CC[C@H]3[C@@H](C[C@H]4O[C@]45[C@@H](O)C(N(C)CC(=O)O)CC(=O)[C@]35C)[C@]12O (some centres undefined)

>  <IC50>
> 20 µM

$$$$

Ask | # lookup: IC50 of CC(=O)O[C@H]1C=C([C@H](C)[C@H]2CC(C)=C(C)C(=O)O2)[C@@]2(C)CC[C@H]3[C@@H](C[C@H]4O[C@]45[C@@H](OC(=O)/C=C/C(=O)N4CCOCC4)C=CC(=O)[C@]35C)[C@]12O
Reply | 0.43 µM

====

- System: HepG2
- measurement_notes: Antiproliferative activity against human HepG2 cells assessed as reduction in cell viability incubated for 24 hrs by MTT assay
- Type: functional, cell-based
- condition_summary: HepG2, 24 h
Listing of recorded pIC50 by entry.
pIC50 (log units): -log10 of the concentration in mol/L.

Ask | # lookup: pIC50 of CCC(=O)O[C@H]1C=CC(=O)[C@]2(C)[C@H]3CC[C@]4(C)C([C@H](C)[C@H]5CC(C)=C(C)C(=O)O5)=C[C@H](OC(C)=O)[C@@]4(O)[C@@H]3C[C@H]3O[C@]132
Reply | 5.78

Ask | # lookup: pIC50 of CC(=O)O[C@H]1C=C([C@H](C)[C@H]2CC(C)=C(C)C(=O)O2)[C@@]2(C)CC[C@H]3[C@@H](C[C@H]4O[C@]45[C@@H](OC(=O)/C=C/C(=O)N4CCCC4)C=CC(=O)[C@]35C)[C@]12O
Reply | 6.54

Ask | # lookup: pIC50 of CC(=O)O[C@H]1C=C([C@H](C)[C@H]2CC(C)=C(C)C(=O)O2)[C@@]2(C)CC[C@H]3[C@@H](C[C@H]4O[C@]45[C@@H](OC(=O)C=C(C)C)C=CC(=O)[C@]35C)[C@]12O
Reply | 6.59

Ask | # lookup: pIC50 of CCOC(=O)/C=C/C(=O)O[C@H]1C=CC(=O)[C@]2(C)[C@H]3CC[C@]4(C)C([C@H](C)[C@H]5CC(C)=C(C)C(=O)O5)=C[C@H](OC(C)=O)[C@@]4(O)[C@@H]3C[C@H]3O[C@]132
Reply | 6.62

Ask | # lookup: pIC50 of CCN(CC)C(=O)O[C@H]1C=CC(=O)[C@]2(C)[C@H]3CC[C@]4(C)C([C@H](C)[C@H]5CC(C)=C(C)C(=O)O5)=C[C@H](OC(C)=O)[C@@]4(O)[C@@H]3C[C@H]3O[C@]132
Reply | 6.16

Ask | # lookup: pIC50 of CC(=O)O[C@H]1C=C([C@H](C)[C@H]2CC(C)=C(C)C(=O)O2)[C@@]2(C)CC[C@H]3[C@@H](C[C@H]4O[C@]45[C@@H](OC(=O)/C=C/C(=O)N4CCCCC4)C=CC(=O)[C@]35C)[C@]12O
Reply | 6.51

Ask | # lookup: pIC50 of CC(=O)O[C@H]1C=C([C@H](C)[C@H]2CC(C)=C(C)C(=O)O2)[C@@]2(C)CC[C@H]3[C@@H](C[C@H]4O[C@]45[C@@H](OC(=O)/C=C/C(=O)N(C)C)C=CC(=O)[C@]35C)[C@]12O
Reply | 6.96

Ask | # lookup: pIC50 of CC(=O)O[C@H]1C=C([C@H](C)[C@H]2CC(C)=C(C)C(=O)O2)[C@@]2(C)CC[C@H]3[C@@H](C[C@H]4O[C@]45[C@@H](OC(=O)C(CC(C)C)NC(=O)OC(C)(C)C)C=CC(=O)[C@]35C)[C@]12O (some centres undefined)
Reply | 6.28

Ask | # lookup: pIC50 of CC(=O)O[C@H]1C=C([C@H](C)[C@H]2CC(C)=C(C)C(=O)O2)[C@@]2(C)CC[C@H]3[C@@H](C[C@H]4O[C@]45[C@@H](OC(C)=O)C=CC(=O)[C@]35C)[C@]12O
Reply | 5.80
